System: EpiSC-derived OPCs
Assay name: In vitro phenotypic screening of OPCs, MBP high-content imaging
Assay type: cell-based, mouse
Condition notes: Mus musculus, 72 h, percentage of MBP+ oligodendrocytes; 3 days; 0.5 nM to 1000 nM; read-out: mOPC EC50
Would you mind classing the entries by EC50? Ranges: Low: < 0.003 µM; Medium: ≥ 0.003 µM and < 0.03 µM; High: ≥ 0.03 µM

[[record]]
molecule = "CC(C)(CN1CCC2(C1)CS(=O)(=O)C2)Oc1cccc(F)c1"
class_name = "Medium"

[[record]]
molecule = "C[C@@H](Cc1ccc(C(F)(F)F)cc1)CN1CC2(CCS(=O)(=O)CC2)C1 (single isomer, unassigned) [232B*]"
class_name = "Medium"

[[record]]
molecule = "CC(C)(Cc1ccc(C(F)(F)F)cc1)CN1CCC2(CC1)CS(=O)(=O)C2"
class_name = "Low"

[[record]]
molecule = "C[C@H](Cc1ccc(C(F)(F)F)nc1)CN1CCC2(C1)CS(=O)(=O)C2 (single isomer, unassigned) [118B*]"
class_name = "High"

[[record]]
molecule = "C[C@@H](CN1CCC2(C1)CS(=O)(=O)C2)Oc1ccc(C(F)(F)F)cc1 (single isomer, unassigned) [115B*]"
class_name = "Medium"

[[record]]
molecule = "CCC(C)(C)c1ccc(CC(C)CN2CCC3(CCS(=O)(=O)C3)C2)cc1 (stereo not drawn)"
class_name = "High"

[[record]]
molecule = "O=S1(=O)CC2(CCN(CC[C@@H](F)c3ccc(C(F)(F)F)cc3)C2)C1 (single isomer, unassigned) [Compound 122A]"
class_name = "Medium"

[[record]]
molecule = "O=S1(=O)CC2(CCN(CCOc3cncc(F)c3)CC2)C1"
class_name = "High"

[[record]]
molecule = "C[C@H](Cc1ccc(C(F)(F)F)cc1)CN1CCC2(C1)CS(=O)(=O)C2 (single isomer, unassigned) [114B*]"
class_name = "Low"

[[record]]
molecule = "C[C@H](Cc1ccc(C2CCC(F)(F)CC2)c(Cl)c1)CN1CCC2(C1)CS(=O)(=O)C2 (single isomer, unassigned) [117B*]"
class_name = "Low"

[[record]]
molecule = "C[C@@H](Cc1ccc(C(F)(F)F)nc1)CN1CC2(CCS(=O)(=O)CC2)C1 (single isomer, unassigned) [234B*]"
class_name = "High"

[[record]]
molecule = "C[C@H](Cc1ccc(OC(F)(F)F)cc1)CN1CCC2(C1)CS(=O)(=O)C2 (single isomer, unassigned) [119B*]"
class_name = "Low"

[[record]]
molecule = "COC(Cc1ccc(C(F)(F)F)cc1)CN1CCC2(C1)CS(=O)(=O)C2 (racemic)"
class_name = "Medium"

[[record]]
molecule = "O=S1(=O)CC2(CCN(CCOc3cnc([C@H]4CC[C@H](C(F)(F)F)CC4)c(Cl)c3)CC2)C1"
class_name = "Low"

[[record]]
molecule = "O=S1(=O)CC2(CCN(CCOc3ccc(-c4ccc(C(F)(F)F)nc4)cc3)CC2)C1"
class_name = "Medium"

